Recorded inhibition by entry
- System: UDP-N-acetylbacillosamine N-acetyltransferase PglD (Campylobacter jejuni)
- assay-explanation: C. jejuni PglD acetyltransferase inhibitors, primary screen, biochemical, DTNB colorimetric, single point (AID 602405)
- measurement-context: purified PglD enzyme, DTNB colorimetric CoA detection; at 12.5 µM; active compounds read high
Hit rate of the full screen: of about 360,000 compounds, about 350 (0.097%) were called active. Shown is part of a subset that was picked to be rich in actives.
Lab book: enter the figure in %, no units written.

{"compound": "C[C@@H]1CN([C@H](C)CO)S(=O)(=O)c2ccc(C#CCC3CCCC3)cc2O[C@H]1CN(C)Cc1ccc(C(=O)O)cc1", "recorded-metric": "inhibition", "recorded-value": 6.4}
{"compound": "CC(C)CCNC(=O)c1[nH]c(C(F)(F)F)nc1-c1ccccc1", "recorded-metric": "inhibition", "recorded-value": -5.32}
{"compound": "Cc1ccc(S(=O)(=O)N2CCC(C(=O)NCC3CCCO3)CC2)cc1 (centres undefined)", "recorded-metric": "inhibition", "recorded-value": 34.1}
{"compound": "Cc1ccc(S(=O)(=O)NCC[C@H]2CC[C@H](NC(=O)c3ccccn3)[C@@H](CO)O2)cc1", "recorded-metric": "inhibition", "recorded-value": 1.02}
{"compound": "C/C=C/c1ccc2c(c1)O[C@@H](CN(C)C(=O)C1CCOCC1)[C@H](C)CN([C@H](C)CO)S2(=O)=O", "recorded-metric": "inhibition", "recorded-value": -2.4}
{"compound": "CC(C)CCC(C)NC(=O)c1ccc2nccnc2c1 (centres undefined)", "recorded-metric": "inhibition", "recorded-value": -0.116}
{"compound": "CC(C)CCNC(=O)c1ccc2c(Cl)c3c(nc2c1)CCC3", "recorded-metric": "inhibition", "recorded-value": 58.9}
{"compound": "O=C(Nc1ccccc1F)N1C[C@H]2[C@@H](c3ccccc31)[C@@H](CO)N2C(=O)Cc1cccnc1", "recorded-metric": "inhibition", "recorded-value": 5.55}

Notebook entry, UDP-N-acetylbacillosamine N-acetyltransferase PglD (Campylobacter jejuni) assay: inhibition of Cc1ccc(CN(CC(=O)NCC2CCCO2)S(=O)(=O)c2ccc(C)cc2)cc1 (centres undefined) = ? -1.95
